These entries and their values trace back to patent US20110212997A1.

EXPERIMENTAL_TARGET: serotonine (5-HT) reuptake in synaptosomes (Rattus norvegicus, UniProt P31652)
Construct: serotonine (5-HT) in synaptosomes as described in WO 97/16451
Sequence (P31652 whole entry): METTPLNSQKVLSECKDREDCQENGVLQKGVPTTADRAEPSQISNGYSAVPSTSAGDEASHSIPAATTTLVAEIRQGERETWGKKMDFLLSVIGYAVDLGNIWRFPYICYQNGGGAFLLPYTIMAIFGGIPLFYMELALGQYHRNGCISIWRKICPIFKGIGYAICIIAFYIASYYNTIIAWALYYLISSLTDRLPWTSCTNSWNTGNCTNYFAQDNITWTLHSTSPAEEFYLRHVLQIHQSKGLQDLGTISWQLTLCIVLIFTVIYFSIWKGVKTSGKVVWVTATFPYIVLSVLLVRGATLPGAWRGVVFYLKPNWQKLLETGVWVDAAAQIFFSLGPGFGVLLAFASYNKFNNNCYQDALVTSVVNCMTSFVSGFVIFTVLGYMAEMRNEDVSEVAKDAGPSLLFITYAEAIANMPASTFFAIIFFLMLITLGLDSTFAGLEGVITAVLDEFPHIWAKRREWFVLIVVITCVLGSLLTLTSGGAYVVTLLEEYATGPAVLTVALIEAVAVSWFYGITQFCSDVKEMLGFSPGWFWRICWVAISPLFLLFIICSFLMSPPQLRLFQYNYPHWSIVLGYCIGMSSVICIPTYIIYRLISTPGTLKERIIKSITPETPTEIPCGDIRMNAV
ASSAY_EXPLANATION: Inhibition of 5-HT reuptake in synaptosomes
PARTICULARS: 3H-5-HT, read-out: 5-HT-uptake IC50
MEASURED_PROPERTY: IC50 (nM)

// below: answered molecules
MOLECULE	IC50 / nM
CCN(C(=O)CC1CCNCC1)c1ccc(Br)c(Br)c1 [Compound C11]	610
CCN1CCC(CC(=O)N(CC)c2ccc(Cl)c(Cl)c2)CC1 [Compound D11]	870
CCCN(C(=O)CC1CCNCC1)c1ccc(Cl)c(Cl)c1 [Compound C12]	880

A: O=C(CC1CCNCC1)Nc1ccc(Cl)c(Cl)c1 [Compound C2]
B: CN(C(=O)CC1CCNCC1)c1ccc(Cl)c(Cl)c1 [Compound B1]
C: CCN(C(=O)CC1CCN(C)CC1)c1ccc(Cl)c(Br)c1 [Compound D21]
D: CCCN(C(=O)CC1CCN(C)CC1)c1ccc(Cl)c(Cl)c1 [Compound D20]
In: Sort entries by IC50 from minimum to maximum value. Respond with the label ranking, as requested.
Out: A, B, D, C

====

EXPERIMENTAL_TARGET: noradrenaline (NA) reuptake in synaptosomes (Rattus norvegicus)
Construct: in synaptosomes as described in WO 97/16451; from tissue
ASSAY_EXPLANATION: Inhibition of NA reuptake in synaptosomes
Type: biochemical
PARTICULARS: synaptosomes, 3H-NA; read-out: NA-uptake IC50
pIC50: −log10 of the molar value.
MEASURED_PROPERTY: pIC50

COMPOUND	TEST_RESULT
CCN1CCC(CC(=O)N(CC)c2ccc(Cl)c(Cl)c2)CC1 [Compound D11]	8.49
CCN(C(=O)CC1CCN(C)CC1)c1ccc(Cl)cc1 [Compound D2]	6.41

a: CCN(C(=O)CC1CCN(C)CC1)c1ccc(Cl)c(Br)c1 [Compound D21]
b: CCN(C(=O)CC1CCNCC1)c1cc(Cl)ccc1Cl [Compound C7]
In: Form field 'greater pIC50' accepts a or b ; which applies? Write down the label attached to your selection.
Out: a
(a: 8.64, b: 5.82)

====

EXPERIMENTAL_TARGET: dopamine (DA) reuptake in synaptosomes (Rattus norvegicus)
Construct: in synaptosomes as described in WO 97/16451; from tissue
Sequence (P23977 whole entry): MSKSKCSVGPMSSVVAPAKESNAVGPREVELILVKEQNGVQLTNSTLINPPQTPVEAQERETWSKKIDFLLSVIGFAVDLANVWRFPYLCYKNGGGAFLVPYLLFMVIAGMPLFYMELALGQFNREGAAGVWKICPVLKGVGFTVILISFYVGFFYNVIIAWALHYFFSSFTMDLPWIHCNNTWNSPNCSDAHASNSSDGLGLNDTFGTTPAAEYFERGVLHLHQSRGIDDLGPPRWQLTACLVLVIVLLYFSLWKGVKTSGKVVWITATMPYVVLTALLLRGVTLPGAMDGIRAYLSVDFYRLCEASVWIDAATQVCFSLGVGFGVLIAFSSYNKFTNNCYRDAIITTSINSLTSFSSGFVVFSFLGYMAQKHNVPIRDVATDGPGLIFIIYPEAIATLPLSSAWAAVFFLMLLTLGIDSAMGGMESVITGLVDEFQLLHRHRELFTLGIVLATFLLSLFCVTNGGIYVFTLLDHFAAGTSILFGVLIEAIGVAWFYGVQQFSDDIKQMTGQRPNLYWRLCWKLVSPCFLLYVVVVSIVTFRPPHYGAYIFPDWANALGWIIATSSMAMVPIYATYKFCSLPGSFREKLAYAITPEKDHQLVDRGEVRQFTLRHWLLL
ASSAY_EXPLANATION: Inhibition of DA reuptake in synaptosomes
Format: biochemical
PARTICULARS: synaptosomes, 3H-DA; read-out: DA-uptake IC50
MEASURED_PROPERTY: IC50 (nM)

COMPOUND	TEST_RESULT
CCN(C(=O)CC1CCNCC1)c1cc(Cl)cc(Cl)c1 [Compound C9]	1900

I: CCN(C(=O)CC1CCN(C)CC1)c1ccc(Cl)c(Br)c1 [Compound D21]
II: CCN(C(=O)CC1CCNCC1)c1cccc(Cl)c1 [Compound C4]
In: Could you please tell me which of these two has the higher IC50: I or II ? Your answer should be the label attached to the chosen record.
Out: II

====

EXPERIMENTAL_TARGET: noradrenaline (NA) reuptake in synaptosomes (Rattus norvegicus, UniProt Q63380)
Construct: in synaptosomes as described in WO 97/16451; from tissue
Sequence (Q63380 1-617): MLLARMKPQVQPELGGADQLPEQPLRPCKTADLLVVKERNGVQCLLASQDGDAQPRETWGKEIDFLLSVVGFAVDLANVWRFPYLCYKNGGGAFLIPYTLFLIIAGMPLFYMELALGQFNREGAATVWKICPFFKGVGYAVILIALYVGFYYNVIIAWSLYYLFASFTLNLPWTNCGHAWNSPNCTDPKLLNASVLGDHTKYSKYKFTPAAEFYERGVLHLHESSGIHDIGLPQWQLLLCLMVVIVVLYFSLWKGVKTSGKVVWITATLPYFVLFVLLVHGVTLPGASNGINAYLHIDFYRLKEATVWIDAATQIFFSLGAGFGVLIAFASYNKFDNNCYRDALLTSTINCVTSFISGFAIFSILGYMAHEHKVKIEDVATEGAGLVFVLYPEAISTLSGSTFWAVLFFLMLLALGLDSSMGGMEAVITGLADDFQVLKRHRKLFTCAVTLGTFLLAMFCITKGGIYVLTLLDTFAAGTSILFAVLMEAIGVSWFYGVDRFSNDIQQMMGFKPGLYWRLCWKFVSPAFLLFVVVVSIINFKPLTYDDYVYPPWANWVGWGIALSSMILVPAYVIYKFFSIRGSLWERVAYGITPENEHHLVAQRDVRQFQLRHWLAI
ASSAY_EXPLANATION: Inhibition of NA reuptake in synaptosomes
Format: biochemical
PARTICULARS: synaptosomes, 3H-NA; read-out: NA-uptake IC50
pIC50: −log10 of the molar value.
MEASURED_PROPERTY: pIC50

Solved cases below.
COMPOUND_STRUCTURE	pIC50
CCN(C(=O)CC1CCN(C)CC1)c1cccc2ccccc12	5.77
CCN(C(=O)CC1CCN(C)CC1)c1cc(Cl)cc(Cl)c1	5.74
CCN(C(=O)CC1CCN(C)CC1)c1ccc(Cl)cc1Cl	6.02

A: CCN(C(=O)CC1CCNCC1)c1c(Cl)cccc1Cl
B: CCN(C(=O)CC1CCNCC1)c1ccc(Cl)cc1
C: CCCN(C(=O)CC1CCNCC1)c1ccc(Cl)c(Cl)c1
D: CCN(C(=O)CC1CCNCC1)c1ccc(Br)c(Br)c1
E: CCN(C(=O)CC1CCNCC1)c1ccc(Br)c(Cl)c1
In: Rank entries according to their pIC50, from the largest number down. Answer by listing the labels in the requested order.
Out: D, E, C, B, A
(D: 8.92, E: 8.59, C: 8.28, B: 6.11, A: 5.57)
